# EXPERIMENTAL_TARGET: UniProt:Q9H7B4
# PROTOCOL_NOTES: SMYD3 cell assay (Trimethyl-MEKK2 In-Cell Western in 293T/17 cells)
# Format: cell-based
# DETAILS: average of n = 1 to n = 50; read-out: SMYD3 Cell IC50
Quick rule for you: IC50 under 1000 nM gets true (1), anything else gets false (0).

CNCc1ccc(C(=O)N2CC[C@@H](NC(=O)c3cc(C4CC4)on3)C[C@H]2C)cc1 [compound 675]
false (0)
C[C@@H]1CN(S(=O)(=O)CCCN)[C@H](C)C[C@@H]1NC(=O)c1cc(C2CC2)on1 [compound 642]
true (1)
C[C@@H]1C[C@H](NC(=O)c2cc(C3CC3)on2)CCN1C(=O)c1ccc([C@@H](C)N)cc1 [compound 664]
false (0)
C[C@H]1C[C@@H](NC(=O)c2cc(C3CC3)on2)CCN1S(=O)(=O)CCCNC(c1ccccc1)c1ccccc1 [compound 645]
true (1)
C[C@@H]1CN(S(=O)(=O)N2CC[C@H](NC(=O)c3cc(C4CC4)on3)C[C@@H]2C)[C@@H](C)CN1C [compound 712]
false (0)
C[C@H]1CN(S(=O)(=O)CCN)[C@@H](C)C[C@H]1NC(=O)c1cc(C2CC2)on1 [compound 694]
true (1)

Okay, next one:
Does the reported IC50 of the following compound sit strictly below 1000 nM? COCCN1CCC(CS(=O)(=O)N2CC[C@@H](NC(=O)c3cc(C4CC4)on3)[C@@H](C)C2)CC1 [compound 654]
true (1)

---

# EXPERIMENTAL_TARGET: SMYD3 (Homo sapiens (Human), UniProt Q9H7B4)
# Sequence (Q9H7B4 whole entry): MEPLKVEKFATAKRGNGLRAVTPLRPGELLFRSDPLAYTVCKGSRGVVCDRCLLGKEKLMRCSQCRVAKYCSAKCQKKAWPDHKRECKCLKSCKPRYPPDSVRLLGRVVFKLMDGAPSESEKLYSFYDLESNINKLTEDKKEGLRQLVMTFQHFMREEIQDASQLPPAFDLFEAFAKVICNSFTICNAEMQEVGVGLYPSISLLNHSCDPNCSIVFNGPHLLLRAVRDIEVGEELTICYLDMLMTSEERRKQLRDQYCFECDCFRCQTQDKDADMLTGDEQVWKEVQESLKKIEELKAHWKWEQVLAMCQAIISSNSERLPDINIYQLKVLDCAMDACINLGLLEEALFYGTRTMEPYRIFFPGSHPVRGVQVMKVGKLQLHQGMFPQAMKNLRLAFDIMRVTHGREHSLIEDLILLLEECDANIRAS
# PROTOCOL_NOTES: SMYD3 biochemical assay (SPA, 3H-SAM methylation of MEKK2 protein substrate)
# DETAILS: Table 2A; read-out: SMYD3 Biochem IC50
pIC50: −log10 of the molar value.
Given measured pIC50, output y if it is greater than or equal to 8 and n if not.

Solved entries:
CNCCCCS(=O)(=O)N1CC[C@H](NC(=O)c2cc(C3CC3)on2)C[C@@H]1C [compound 561]
y
C[C@@H]1C[C@H](NC(=O)c2cc(C3CC3)on2)CCN1C(=O)c1ccc(C2CCCNC2)cc1 (stereo partly shown) [compound 616]
n

Now for another entry.
# bool: pIC50 of CNCCN(C)CCCS(=O)(=O)N1[C@@H]2CC[C@H]1C[C@@H](NC(=O)c1cc(C3CC3)on1)C2 [compound 622] >= 8
n

---

# EXPERIMENTAL_TARGET: SMYD3 (Homo sapiens (Human), UniProt Q9H7B4)
# PROTOCOL_NOTES: SMYD3 biochemical assay (SPA, 3H-SAM methylation of MEKK2 protein substrate)
# DETAILS: read-out: SMYD3 Biochem IC50*
RECORDED_ENDPOINT: IC50 (nM)
Please state the figure in nM; there is no need to write the unit.

For record CCc1cc(C(=O)N[C@H]2CCN(S(=O)(=O)c3ccc(C(C)(C)N)cc3)[C@@H](C)C2)no1 the listed IC50 is 2.58

The value of IC50 measured for the compound COCCNC1CCN(S(=O)(=O)N2[C@@H]3CC[C@H]2C[C@@H](NC(=O)c2cc(C4CC4)on2)C3)CC1 turned out to be 9.34

Measured IC50, O=C(N[C@H]1C[C@H]2CC[C@@H](C1)N2S(=O)(=O)N1CCNCC1c1ccccc1)c1cc(C2CC2)on1 (stereo partly shown) : 44.7

IC50 recorded for this compound, CCCNC1CCN(S(=O)(=O)N2[C@@H]3CC[C@H]2C[C@@H](NC(=O)c2cc(C4CC4)on2)C3)CC1 , is 7.77
